system: DU-145 prostate; test: NCI-60 one-dose screen, 48 h; details: 10 µM unless noted
About 83,000 compounds went through this panel and 20% of them were active in at least one assay; those are over-represented in the sample as a whole. Calls of active or inactive are those of the source. How the source made its calls: active means growth percent below 10; inactive means the rest.
Your reply should match one of these outcome classes. active, inactive

Solved entries (count: 6):
compound	label-value
CCCn1c(=S)sc2c1nc(C)n1c(Nc3ccccc3)nnc21	inactive
COc1cc(/C=C2\CN(S(=O)(=O)c3ccc(C)cc3)C/C(=C\c3cc(CN4CCCCC4)c(O)c(OC)c3)C2=O)cc(CN2CCCCC2)c1O	active
COc1cc(/C=C\c2cc(/C=C\c3ccc(O)c(OC)c3)n(C(=O)CNc3ccc(Cl)cc3)n2)ccc1O	inactive
CC(CN)[C@@H]1CC[C@]2(CO)CC[C@]3(C)[C@H](CC[C@@H]4[C@@]5(C)CCC(N)C(C)(C)[C@@H]5CC[C@]43C)[C@@H]12 (some centres not stated)	active
O=C1CCC(C(=O)NN(c2ccccc2)c2ccccc2)N1 (configuration not stated)	inactive
C[C@@H]1O[C@@H](O[C@@H]2C[C@H](c3ccc4c(c3O)C(=O)C3=C(C4=O)[C@@]4(O)C(=O)C[C@](C)(O)C[C@@]4(O)C=C3)O[C@H](C)[C@H]2O)C[C@H](O)[C@@H]1O	inactive

Next:
What did this assay record as the result for `C#CC#CC#CC#CC#CC#CC#CC#CC[C@H]1OC[C@H](COC(=O)O[C@@H](C(=O)O[C@H]2C[C@@]3(O)[C@@H](OC(=O)c4ccccc4)[C@@H]4[C@]5(OC(C)=O)CO[C@@H]5C[C@H](O)[C@@]4(C)C(=O)[C@H](OC(C)=O)C(=C2C)C3(C)C)[C@@H](NC(=O)c2ccccc2)c2ccccc2)O1` ?
inactive
